Biological target: T1, human PCSK9 (proprotein convertase subtilisin kexin type 9) (human, UniProt Q8NBP7 31-692)
T1 construct: Directly immobilized (SPR ProteOn), biotinylated (BLI), or in solution, depending on the assay; also called hPCSK9
Assay: FRET, competitor ATI000972
property.name: IC50 (nM)

binder	IC50 (nM)
2011H05 (designed binder, Anti-PCSK9 Adnectin, His6-tagged; also called ATI001091) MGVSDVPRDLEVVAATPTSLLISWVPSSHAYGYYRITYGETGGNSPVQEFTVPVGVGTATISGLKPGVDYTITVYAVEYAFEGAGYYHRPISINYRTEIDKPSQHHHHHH	1.4
1813E02 (designed binder, Anti-PCSK9 Adnectin, His6-tagged) MGVSDVPRDLEVVAATPTSLLISWSPPANGYGYYRITYGETGGNSPVQEFTVPVGRGTATISGLKPGVDYTITVYAVEYTYKGSGYYHRPISINYRTEIDKPSQHHHHHH	2.4
1923B02 (designed binder, Anti-PCSK9 Adnectin, His6-tagged) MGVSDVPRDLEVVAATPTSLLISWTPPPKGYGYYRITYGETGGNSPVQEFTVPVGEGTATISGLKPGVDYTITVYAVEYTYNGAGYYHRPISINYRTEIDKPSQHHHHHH	3.2
1459D05 (designed binder, also called ATI000891; ATI-891) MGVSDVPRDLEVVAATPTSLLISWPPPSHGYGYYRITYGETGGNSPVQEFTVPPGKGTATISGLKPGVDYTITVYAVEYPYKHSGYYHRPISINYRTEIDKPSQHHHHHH	14
2013E01 (designed binder, Anti-PCSK9 Adnectin, His6-tagged, unmodified (not PEGylated); also called ATI001081) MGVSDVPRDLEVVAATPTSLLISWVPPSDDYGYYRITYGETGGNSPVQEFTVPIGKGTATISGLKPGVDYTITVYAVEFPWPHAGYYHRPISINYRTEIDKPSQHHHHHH	1.8

(I) 2012A04 (designed binder, Anti-PCSK9 Adnectin, His6-tagged) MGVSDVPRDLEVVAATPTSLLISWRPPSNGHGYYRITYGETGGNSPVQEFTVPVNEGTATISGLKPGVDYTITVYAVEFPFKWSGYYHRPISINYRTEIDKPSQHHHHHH
(II) 1784F03 (designed binder, Anti-PCSK9 Adnectin, His6-tagged) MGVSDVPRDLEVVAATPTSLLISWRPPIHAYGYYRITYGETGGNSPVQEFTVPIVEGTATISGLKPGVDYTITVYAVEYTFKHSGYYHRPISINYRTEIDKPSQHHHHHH
Query block: Hi! Which is lower in terms of IC50, the first one I or the second one II ? Refer to your chosen entry by its label in the reply.
Result block: I
